- test-details: Aqueous solubility of compound in phosphate buffer pH 7 at 10 mM for 3 days with stirring by UV-HPLC analysis
- Type: physicochemical
- setup-conditions: time 3 day
measured-endpoint: solubility at 72 h, 10000 µM (µM)

In the examples that follow, each entry is paired with its recorded solubility at 72 h, 10000 µM.
[[record]]
smiles_structure = "C=CC(=O)N1CCC[C@@H](NC(=O)c2sc3nccc4c3c2NC(=O)N4c2ccc(Oc3ccccc3)cn2)C1"
meas_value = 9

[[record]]
smiles_structure = "C=CC(=O)N1CCC[C@@H](NC(=O)c2sc3nccc4c3c2NC(=O)N4c2cnc(OC(C)C)cc2C)C1"
meas_value = 68

[[record]]
smiles_structure = "C=CC(=O)NCCNC(=O)c1sc2nccc3c2c1NC(=O)N3c1cnc(CC(C)C)cc1C"
meas_value = 220


1: C=CC(=O)N1CC[C@@H](NC(=O)c2sc3nccc4c3c2NC(=O)N4c2cnc(CC(C)C)cc2C)C1
2: C=CC(=O)N1CCC[C@@H](NC(=O)c2sc3nccc4c3c2NC(=O)N4c2ncc(Oc3ccccc3)cc2C)C1
Given the listed records, identify the one among 1 and 2 with higher solubility at 72 h, 10000 µM. Give the label of your selection. 1
(1: 172 µM, 2: 9 µM)

----------
- test-details: Aqueous solubility of compound in phosphate buffer pH 2 at 10 mM for 3 days with stirring by UV-HPLC analysis
- Format: physicochemical
- setup-conditions: time 3 day
measured-endpoint: solubility at 72 h, 10000 µM (µM)

[[record]]
smiles_structure = "C=CC(=O)N1CCC[C@@H](NC(=O)c2sc3nccc4c3c2NC(=O)N4c2cnc(OC3CCCC3)cc2C)C1"
measured_endpoint = "solubility at 72 h, 10000 µM"
display_unit = "µM"
meas_value = 15

[[record]]
smiles_structure = "C=CC(=O)N1CCC[C@@H](NC(=O)c2sc3nccc4c3c2NC(=O)N4c2cnc(Oc3ccccc3)cc2C)C1"
measured_endpoint = "solubility at 72 h, 10000 µM"
display_unit = "µM"
meas_value = 15


----------
- test-details: Aqueous solubility of compound in phosphate buffer pH 7 at 10 mM for 3 days with stirring by UV-HPLC analysis
- Format: physicochemical
- setup-conditions: time 3 day
measured-endpoint: solubility at 72 h, 10000 µM (µM)

a: C=CC(=O)N1CCC[C@@H](NC(=O)c2sc3nccc4c3c2NC(=O)N4c2cnc(OC3CCC3)cc2C)C1
b: C=CC(=O)N1CCC[C@@H](NC(=O)c2sc3nccc4c3c2NC(=O)N4c2cnc(CC(C)C)cc2C)C1
c: C=CC(=O)N1CCC[C@@H](NC(=O)c2sc3nccc4c3c2NC(=O)N4c2cnc(Oc3ccccc3)cc2C)C1
Rank by decreasing solubility at 72 h, 10000 µM the items listed here. The labels, placed in the requested order, form the answer. b, c, a

----------
- test-details: Aqueous solubility of compound in phosphate buffer pH 2 at 10 mM for 3 days with stirring by UV-HPLC analysis
- Format: physicochemical
- setup-conditions: time 3 day
measured-endpoint: solubility at 72 h, 10000 µM (µM)

In the examples that follow, each entry is paired with its recorded solubility at 72 h, 10000 µM.
[[record]]
smiles_structure = "C=CC(=O)N1CCC[C@@H](NC(=O)c2sc3nccc4c3c2NC(=O)N4c2cnc(OC3CCC3)cc2C)C1"
display_unit = "µM"
meas_value = 10

[[record]]
smiles_structure = "C=CC(=O)N1CCC[C@@H](NC(=O)c2sc3nccc4c3c2NC(=O)N4c2ccc(Oc3ccccc3)cn2)C1"
display_unit = "µM"
meas_value = 10

[[record]]
smiles_structure = "C=CC(=O)N1CCC[C@@H](NC(=O)c2sc3nccc4c3c2NC(=O)N4c2ccc(Oc3ccccc3)nc2)C1"
display_unit = "µM"
meas_value = 18

[[record]]
smiles_structure = "C=CC(=O)N1CCC[C@@H](NC(=O)c2sc3nccc4c3c2NC(=O)N4c2cnc(OC(C)C)cc2C)C1"
display_unit = "µM"
meas_value = 119


a: C=CC(=O)N1CCC[C@@H](NC(=O)c2sc3nccc4c3c2NC(=O)N4c2cnc(CC(C)C)cc2C)C1
b: C=CC(=O)N1CCC[C@@H](NC(=O)c2sc3nccc4c3c2NC(=O)N4c2ncc(Oc3ccccc3)cc2C)C1
Look at a and b . Which one has the lower recorded solubility at 72 h, 10000 µM number? Give the label of your selection. b

----------
- test-details: Protein binding in human plasma assessed as unbound fraction
- Type: ADME, cell-free
measured-endpoint: fraction unbound
Reply: number alone, nothing else.

Give the measured fraction unbound for `C=CC(=O)N1CC[C@@H](NC(=O)c2sc3nccc4c3c2NC(=O)N4c2ccc(Oc3ccccc3)cc2C)C1` 0.0016

----------
Entries annotated with measured solubility at 72 h, 10000 µM
- test-details: Aqueous solubility of compound in phosphate buffer pH 7 at 10 mM for 3 days with stirring by UV-HPLC analysis
- Format: physicochemical
- setup-conditions: time 3 day

In the examples that follow, each entry is paired with its recorded solubility at 72 h, 10000 µM.
[[record]]
smiles_structure = "C=CC(=O)N1CCC[C@@H](NC(=O)c2sc3nccc4c3c2NC(=O)N4c2ccc(Oc3ccccc3)cc2)C1"
meas_value = "< 4 µM"

[[record]]
smiles_structure = "C=CC(=O)N1CCC[C@@H](NC(=O)c2sc3nccc4c3c2NC(=O)N4c2cnc(OC3CCCC3)cc2C)C1"
meas_value = "< 4 µM"


Give the measured solubility at 72 h, 10000 µM for `C=CC(=O)N1CC[C@@H](NC(=O)c2sc3nccc4c3c2NC(=O)N4c2ccc(Oc3ccccc3)cc2C)C1` < 4 µM

Data credit: ChEMBL document CHEMBL5150028
